experiment: Ex vivo biodistribution in PC-3 tumor-bearing mice; conditions: male, NRG, mouse, seminal, iv, total radioactivity, Biodistribution Seminal Mean, 1 h post-injection, mice bearing PC-3 tumor xenografts, n = 4
Numbered stars: 1 amine (or outer) side, 2 acyl side, 3 side chain; on linkers, the order of the positions; unused ones are H or OH. Square brackets hold non-standard residues; d marks the D form. Peptide text beside a SMILES is read from it. * marks the point of attachment. DOTA = O=C(O)CN1CCN(CC(=O)O)CCN(CC(=O)*)CCN(CC(=O)O)CC1; Leuψ(CH2N)ThzNH2 = CC(C)C[C@@H](CN1CSC[C@H]1C(N)=O)N*; X1 = O=C(CN1CCC(N[*:1])CC1)[*:2]; Tle = CC(C)(C)[C@H](N)C(=O)O
Below, each of the compounds is paired with its reported tissue uptake at 1 h value.
Your answer should be a plain number; it is taken to be in %ID/g.

Please report the recorded tissue uptake at 1 h for CC(C)C[C@H](NC(=O)[C@H](Cc1c[nH]cn1)NC(=O)CNC(=O)[C@@H](NC(=O)[C@H](C)NC(=O)[C@H](Cc1c[nH]c2ccccc12)NC(=O)[C@H](CCC(N)=O)NC(=O)[C@@H](Cc1ccccc1)NC(=O)CN1CCC(NC(=O)CN2CCN(CC(=O)O)CCN(CC(=O)O)CCN(CC(=O)O)CC2)CC1)C(C)C)C(=O)N1CSC[C@H]1C(N)=O [^68Ga-LW01025, metal not drawn] . 0.06

Dear colleague, I am looking for the recorded tissue uptake at 1 h of the following compound: CC(C)C[C@@H](CN1CCC[C@H]1C(N)=O)NC(=O)[C@H](Cc1c[nH]cn1)NC(=O)CN(C)C(=O)[C@@H](NC(=O)[C@H](C)NC(=O)[C@H](Cc1c[nH]c2ccccc12)NC(=O)[C@H](CCC(N)=O)NC(=O)[C@@H](Cc1ccccc1)NC(=O)CN1CCC(NC(=O)CN2CCN(CC(=O)O)CCN(CC(=O)O)CCN(CC(=O)O)CC2)CC1)C(C)C [^68Ga-LW02045, metal not drawn] 3.8

Dear colleague, I am looking for the recorded tissue uptake at 1 h of the following compound: CC(C)C[C@@H](CN1CSC[C@H]1C(N)=O)NC(=O)[C@H](Cc1c[nH]cn1)NC(=O)CNC(=O)[C@@H](NC(=O)[C@H](C)NC(=O)[C@H](Cc1c[nH]c2ccccc12)NC(=O)[C@H](Cc1c[nH]cn1)NC(=O)[C@@H](Cc1ccccc1)NC(=O)CN1CCC(NC(=O)CN2CCN(CC(=O)O)CCN(CC(=O)O)CCN(CC(=O)O)CC2)CC1)C(C)C [^68Ga-LW01102, metal not drawn] ({DOTA}-[X1][dF]HWAVGH-{Leuψ(CH2N)ThzNH2}) 0.23

Note: attention shifts to another entry.
Any idea what its tissue uptake at 1 h is? The compound is CC(C)C[C@@H](CN1CSC[C@H]1C(N)=O)NC(=O)[C@H](Cc1c[nH]cn1)NC(=O)CNC(=O)[C@@H](NC(=O)[C@H](C)NC(=O)[C@H](Cc1c[nH]c2ccccc12)NC(=O)[C@H](CCC(N)=O)NC(=O)[C@@H](Cc1ccccc1)NC(=O)CN1CCC(NC(=O)CN2CCN(CC(=O)O)CCN(CC(=O)O)CCN(CC(=O)O)CC2)CC1)C(C)(C)C [^68Ga-LW01158, metal not drawn] ({DOTA}-[X1][dF]QWA[Tle]GH-{Leuψ(CH2N)ThzNH2}) 0.15
